Data provenance is patent US4882349A.

tested on: carrageenin-induced oedema; test: carrageenin-induced oedema test (anti-inflammatory activity); format: in vivo, albino male Wistar rats; conditions: 25 mg/Kg, Table IV (route not given), 6 h
valueType: oedema % inhibition (%)
# value in %; strip the unit string

compoundString: Cc1ccc(C(=O)c2ccc(CC(=O)N3CCOCC3)n2C)cc1
oedema % inhibition [%]: 34.0
--
compoundString: Cc1ccc(C(=O)c2ccc(CC(=O)NNCC(=O)N3CCN(C)CC3)n2C)cc1
oedema % inhibition [%]: 36.0

Lookup result for Cc1ccc(C(=O)c2ccc(CC(=O)N3CCN(C)CC3)n2C)cc1 ; measured oedema % inhibition: 30.0

* * *

test system: brewers' yeast-induced hyperthermia; assay: antipyretic activity, brewers' yeast-induced hyperthermia; type: in vivo, albino male Wistar rats; conditions: 100 mg/Kg i.p., 1 h
% Temperature decrease listing for selected molecules.
Give a bare numeral; the unit % is implied.

Consider the reported % Temperature decrease for these molecules:
compoundString: Cc1ccc(C(=O)c2ccc(CC(=O)NCC(=O)O)n2C)cc1
assayValue: 35.0

compoundString: Cc1ccc(C(=O)c2ccc(CC(=O)NNCC(=O)N3CCN(C)CC3)n2C)cc1
assayValue: 30.1

Then this molecule:
// Cc1ccc(C(=O)c2ccc(CC(=O)N3CCN(C)CC3)n2C)cc1 : % Temperature decrease value = 32.9

* * *

system: cough provoked by mechanical stimulation of the tracheal bifurcation mucosa; assay: antitussive activity, mechanically provoked coughing; type: in vivo, albino Guinea-pigs; conditions: 100 mg/Kg i.p., 1 h after administration
valueType: % inhibition, cough amplitude

Completed entries (count: 2):
molecule: Cc1ccc(C(=O)c2ccc(CC(=O)O)n2C)cc1 [Tolmetin Na.2H2 O, reference compound]
assayValue: 7%

molecule: Cc1ccc(C(=O)c2ccc(CC(=O)N3CCN(C)CC3)n2C)cc1
assayValue: 52%

Note: attention shifts to another entry.
Briefly, % inhibition, cough amplitude measured for Cc1ccc(C(=O)c2ccc(CC(=O)N3CCOCC3)n2C)cc1 : 40%
